# target-or-system: HLA-A*68:02
# method-notes: IEDB peptide-MHC binding, purified MHC/competitive/radioactivity; bounds were set here for any values at or beyond the usual limits of such assays
# condition-notes: source organism: Vaccinia virus WR
measured-metric: log10 IC50 (log10 of the value in nM)
Heads up: the numbers are on a log10 scale; they represent IC50 in nM.

Some solved cases for reference:
>>> recorded_value("DTCGASINIT")
3.29
>>> recorded_value("STVDVRNIV")
1.26
>>> recorded_value("AVANCVRNL")
3.13
>>> recorded_value("KIEDLINQLV")
3.02
>>> recorded_value("SIDHCSSFIV")
2.86

Problem: Request - read-out log10 IC50 | tested on HLA-A*68:02 | sequence `SIISLFYTFA`
Result: 1.71

Problem: Request - read-out log10 IC50 | tested on HLA-A*68:02 | sequence `LTHFNNNENV`
Result: 1.04

Problem: Request - read-out log10 IC50 | tested on HLA-A*68:02 | sequence `IVCIVAAVII`
Result: 3.47

Problem: Request - read-out log10 IC50 | tested on HLA-A*68:02 | sequence `YQSFLFWFL`
Result: 1.94

Problem: Request - read-out log10 IC50 | tested on HLA-A*68:02 | sequence `NTTTFITVLT`
Result: 1.53
